- Tested on: Oryza sativa
- Test name: Crop compatibility post-emergence, greenhouse pot test
- Assay type: in vivo
- Measurement context: application rate 20 g/ha
- Text: Seeds of mono- and dicotyledonous weed plants and crop plants were laid out in sandy loam soil in plastic or wood-fiber pots, covered with soil and grown under controlled growth conditions in a greenhouse. […] After the trial plants had stood for about 3 weeks in the greenhouse, under optimal growth conditions, the effect of the preparations was scored visually by comparison with untreated controls. […] Crop plant compatibilities were also scored correspondingly. […]
Quantity: Oryza sativa (Efficacy in %)
A number alone suffices; assume %.

The following compounds have reported results that may help.
*Q* Tell us which Oryza sativa (Efficacy in %) value is on record for CCCCOC(=O)COC(=O)CSc1cc(-n2c(=O)cc(C(F)(F)F)n(C)c2=O)c(F)cc1Cl [I.8-51]
*A* 0

*Q* Tell us which Oryza sativa (Efficacy in %) value is on record for CCOC(=O)CCOC(=O)C(CC(C)C)Sc1cc(-n2c(=O)c(C)c(C(F)(F)F)n(C)c2=O)c(F)cc1Cl (centres unmarked) [I.14-3]
*A* 0

*Q* Tell us which Oryza sativa (Efficacy in %) value is on record for COC(=O)COC(=O)CSc1cc(-n2c(=O)cc(C(F)(F)F)n(C)c2=O)c(F)cc1Cl [I.8-42]
*A* 0

*Q* Tell us which Oryza sativa (Efficacy in %) value is on record for CCC(Sc1cc(-n2c(=O)cc(C(F)(F)F)n(C)c2=O)c(F)cc1Cl)C(=O)OCC1CCC(=O)O1 (centres unmarked) [I.2-145]
*A* 0

Others:
*Q* Tell us which Oryza sativa (Efficacy in %) value is on record for CCN(C)C(=O)CCOC(=O)C(C)Sc1cc(-n2c(=O)cc(C(F)(F)F)n(C)c2=O)c(F)cc1Cl (centres unmarked) [I.1-233]
*A* 20
